molecular target: UniProtKB P21554
Sequence (P21554 whole entry): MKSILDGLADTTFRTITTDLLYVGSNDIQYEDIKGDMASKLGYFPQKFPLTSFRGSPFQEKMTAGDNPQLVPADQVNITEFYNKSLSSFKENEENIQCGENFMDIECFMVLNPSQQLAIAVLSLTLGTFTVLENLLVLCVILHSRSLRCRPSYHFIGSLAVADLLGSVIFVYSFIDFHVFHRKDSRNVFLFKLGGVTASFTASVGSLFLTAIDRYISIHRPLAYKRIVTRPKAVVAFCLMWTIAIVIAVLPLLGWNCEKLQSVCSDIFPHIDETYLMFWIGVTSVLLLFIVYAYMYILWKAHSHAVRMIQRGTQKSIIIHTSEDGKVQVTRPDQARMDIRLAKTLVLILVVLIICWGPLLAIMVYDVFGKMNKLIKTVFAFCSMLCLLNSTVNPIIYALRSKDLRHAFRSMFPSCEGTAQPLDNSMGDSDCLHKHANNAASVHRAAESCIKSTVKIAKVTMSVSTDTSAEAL
pIC50: −log10 of the molar value.
MEASUREMENT_KIND: pIC50

1) COC1CC(C)(C)Oc2nc(-c3ccc(Cl)cc3Cl)c(-c3ccc(Cl)cc3)cc21 (racemic); 7.72
2) CC1(C)CC(C(N)=O)c2cc(-c3ccc(Cl)cc3)c(-c3ccc(Cl)cc3Cl)nc2O1 (single isomer, unassigned; enantiomer 2); 6.66
3) CC(C)(O)C(=O)NC1CC2(CCCCC2)Oc2nc(-c3ccccc3Cl)c(-c3ccc(Cl)cc3)cc21 (single isomer, unassigned; enantiomer 2); 7.74
4) O=C1CC2(CCSCC2)Oc2nc(-c3ccccc3Cl)c(-c3ccc(Cl)cc3)cc21; 8.31
5) CN1c2nc(-c3ccc(Cl)cc3Cl)c(-c3ccc(Cl)cc3)cc2C(C(=O)NCO)CC1(C)C (single isomer, unassigned; enantiomer 1); 8.43
6) CC1(C)CC(N)c2cc(-c3ccc(Cl)cc3)c(-c3ccc(Cl)cc3Cl)nc2O1 (racemic); 6.96
7) C[C@H](O)C(=O)NC1CC2(CCCCC2)Oc2nc(-c3ccccc3Cl)c(-c3ccc(Cl)cc3)cc21 (stereo in doubt; 12e); 9.40
8) CC1(C)CC(NC(=O)CO)c2cc(-c3ccc(Cl)cc3)c(-c3ccc(Cl)cc3Cl)nc2O1 (single isomer, unassigned; enantiomer 2); 6.17
9) O=C1CC2(CCCC2)Oc2nc(-c3ccccc3Cl)c(-c3ccc(Cl)cc3)cc21; 7.64
10) CC(C)C1CC(=O)c2cc(-c3ccc(Cl)cc3)c(-c3ccccc3Cl)nc2O1 (racemic); 8.49
11) CC1(C)CC(C)(O)c2cc(-c3ccc(Cl)cc3)c(-c3ccc(Cl)cc3Cl)nc2O1 (racemic); 7.10
12) CC1(C)CC(C(N)=O)c2cc(-c3ccc(Cl)cc3)c(-c3ccc(Cl)cc3Cl)nc2O1 (single isomer, unassigned; enantiomer 1); 7.01
13) C[C@H](O)C(=O)NC1CC2(CCCCC2)Oc2nc(-c3ccccc3Cl)c(-c3ccc(Cl)cc3)cc21 (stereo in doubt; 12f); 7.89
14) CC(C)(CO)NC(=O)C1CC(C)(C)Oc2nc(-c3ccc(Cl)cc3Cl)c(-c3ccc(Cl)cc3)cc21 (single isomer, unassigned; enantiomer 1); 7.85
15) CC1(C)CC(=O)c2cc(-c3ccc(Cl)cc3)c(-c3ccccc3Cl)nc2O1; 6.92
16) O=C(CO)NC1CC2(CCCCC2)Oc2nc(-c3ccccc3Cl)c(-c3ccc(Cl)cc3)cc21 (racemic); 9.52
17) CC1(C)CC(NC(=O)CCO)c2cc(-c3ccc(Cl)cc3)c(-c3ccc(Cl)cc3Cl)nc2O1 (single isomer, unassigned; enantiomer 2); 7.85
18) CC1(C)CC(=O)c2cc(-c3ccc(Cl)cc3)c(-c3ccc(Cl)cc3Cl)nc2O1; 7.33
19) CC(C)(CO)NC(=O)C1CC(C)(C)Oc2nc(-c3ccc(Cl)cc3Cl)c(-c3ccc(Cl)cc3)cc21 (single isomer, unassigned; enantiomer 2); 6.82
20) C[C@@H](O)C(=O)NC1CC2(CCCCC2)Oc2nc(-c3ccccc3Cl)c(-c3ccc(Cl)cc3)cc21 (single isomer, unassigned; enantiomer 1); 9.70
21) CC1(C)CC(NC(=O)CO)c2cc(-c3ccc(Cl)cc3)c(-c3ccccc3Cl)nc2O1 (single isomer, unassigned; enantiomer 1); 7.34
22) CC1(C)CC(NC(=O)C(C)(C)CO)c2cc(-c3ccc(Cl)cc3)c(-c3ccc(Cl)cc3Cl)nc2O1 (single isomer, unassigned; enantiomer 2); 7.47
23) CC1CC(=O)c2cc(-c3ccc(Cl)cc3)c(-c3ccccc3Cl)nc2O1 (racemic); 7.68
24) CC1(C)CC(NC(=O)C(C)(C)CO)c2cc(-c3ccc(Cl)cc3)c(-c3ccc(Cl)cc3Cl)nc2O1 (single isomer, unassigned; enantiomer 1); 8.68
25) O=C1CC(c2cccc(F)c2)Oc2nc(-c3ccccc3Cl)c(-c3ccc(Cl)cc3)cc21 (racemic); 8.77
26) O=C1CC2(CCCCC2)Oc2nc(-c3ccccc3Cl)c(-c3ccc(Cl)cc3)cc21; 8.09
27) CC1(C)CC(NC(=O)CCO)c2cc(-c3ccc(Cl)cc3)c(-c3ccc(Cl)cc3Cl)nc2O1 (single isomer, unassigned; enantiomer 1); 8.77
28) CC1(C)CC(NC(=O)CO)c2cc(-c3ccc(Cl)cc3)c(-c3ccccc3Cl)nc2O1 (single isomer, unassigned); 6.44
